- system: WT mGluR1α (Rattus norvegicus, UniProt P23385)
- Construct: expressed in transfected cells; host or cells: HEK293
- Sequence (P23385 19-1199): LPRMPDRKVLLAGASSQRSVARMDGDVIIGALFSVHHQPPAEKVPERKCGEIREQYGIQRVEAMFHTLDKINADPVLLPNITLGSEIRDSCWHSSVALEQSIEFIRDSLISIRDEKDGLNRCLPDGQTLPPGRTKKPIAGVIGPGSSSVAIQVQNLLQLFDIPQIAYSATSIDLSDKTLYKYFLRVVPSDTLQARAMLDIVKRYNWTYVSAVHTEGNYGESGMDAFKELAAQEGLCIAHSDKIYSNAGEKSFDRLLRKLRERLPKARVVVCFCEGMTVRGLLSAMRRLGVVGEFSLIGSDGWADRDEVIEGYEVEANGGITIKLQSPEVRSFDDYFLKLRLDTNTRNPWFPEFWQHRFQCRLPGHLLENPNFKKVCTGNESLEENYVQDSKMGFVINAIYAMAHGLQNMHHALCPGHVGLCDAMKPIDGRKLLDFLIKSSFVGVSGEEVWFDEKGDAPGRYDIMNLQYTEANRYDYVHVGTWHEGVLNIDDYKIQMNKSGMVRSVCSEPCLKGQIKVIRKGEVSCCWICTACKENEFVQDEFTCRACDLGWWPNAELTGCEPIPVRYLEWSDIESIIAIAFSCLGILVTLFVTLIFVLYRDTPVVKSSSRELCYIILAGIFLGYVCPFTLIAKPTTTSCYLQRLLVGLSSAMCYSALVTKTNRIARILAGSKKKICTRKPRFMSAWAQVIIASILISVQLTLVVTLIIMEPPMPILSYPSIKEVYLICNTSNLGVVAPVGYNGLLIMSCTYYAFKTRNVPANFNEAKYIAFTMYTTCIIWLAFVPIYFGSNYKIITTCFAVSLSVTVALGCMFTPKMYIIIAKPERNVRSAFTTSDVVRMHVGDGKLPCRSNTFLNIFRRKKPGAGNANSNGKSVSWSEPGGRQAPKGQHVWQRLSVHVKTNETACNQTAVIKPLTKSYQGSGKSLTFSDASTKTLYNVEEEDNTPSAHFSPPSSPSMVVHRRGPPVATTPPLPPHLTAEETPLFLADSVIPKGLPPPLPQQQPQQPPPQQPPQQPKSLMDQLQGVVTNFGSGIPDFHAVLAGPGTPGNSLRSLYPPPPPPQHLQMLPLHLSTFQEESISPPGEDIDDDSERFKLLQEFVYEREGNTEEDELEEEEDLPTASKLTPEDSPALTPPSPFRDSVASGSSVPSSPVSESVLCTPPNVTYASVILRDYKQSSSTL
- experimental protocol: Single cell Fura-2 [Ca^2+]i response in HEK293 cells transiently transfected with WT mGluR1α
- Type: cell-based
- stated conditions: Ro 67-4853 30 nM; read-out: EC50 of Ca^2+
measurement kind: EC50 (µM)
Answers are plain numbers, in µM.

EC50 lookup needed for [Ca+2] [[Ca^2+]o] , thanks. 2100

###

- system: mGluR1α D322I (Rattus norvegicus, UniProt P23385, D322I)
- Sequence (P23385 19-1199 D322I): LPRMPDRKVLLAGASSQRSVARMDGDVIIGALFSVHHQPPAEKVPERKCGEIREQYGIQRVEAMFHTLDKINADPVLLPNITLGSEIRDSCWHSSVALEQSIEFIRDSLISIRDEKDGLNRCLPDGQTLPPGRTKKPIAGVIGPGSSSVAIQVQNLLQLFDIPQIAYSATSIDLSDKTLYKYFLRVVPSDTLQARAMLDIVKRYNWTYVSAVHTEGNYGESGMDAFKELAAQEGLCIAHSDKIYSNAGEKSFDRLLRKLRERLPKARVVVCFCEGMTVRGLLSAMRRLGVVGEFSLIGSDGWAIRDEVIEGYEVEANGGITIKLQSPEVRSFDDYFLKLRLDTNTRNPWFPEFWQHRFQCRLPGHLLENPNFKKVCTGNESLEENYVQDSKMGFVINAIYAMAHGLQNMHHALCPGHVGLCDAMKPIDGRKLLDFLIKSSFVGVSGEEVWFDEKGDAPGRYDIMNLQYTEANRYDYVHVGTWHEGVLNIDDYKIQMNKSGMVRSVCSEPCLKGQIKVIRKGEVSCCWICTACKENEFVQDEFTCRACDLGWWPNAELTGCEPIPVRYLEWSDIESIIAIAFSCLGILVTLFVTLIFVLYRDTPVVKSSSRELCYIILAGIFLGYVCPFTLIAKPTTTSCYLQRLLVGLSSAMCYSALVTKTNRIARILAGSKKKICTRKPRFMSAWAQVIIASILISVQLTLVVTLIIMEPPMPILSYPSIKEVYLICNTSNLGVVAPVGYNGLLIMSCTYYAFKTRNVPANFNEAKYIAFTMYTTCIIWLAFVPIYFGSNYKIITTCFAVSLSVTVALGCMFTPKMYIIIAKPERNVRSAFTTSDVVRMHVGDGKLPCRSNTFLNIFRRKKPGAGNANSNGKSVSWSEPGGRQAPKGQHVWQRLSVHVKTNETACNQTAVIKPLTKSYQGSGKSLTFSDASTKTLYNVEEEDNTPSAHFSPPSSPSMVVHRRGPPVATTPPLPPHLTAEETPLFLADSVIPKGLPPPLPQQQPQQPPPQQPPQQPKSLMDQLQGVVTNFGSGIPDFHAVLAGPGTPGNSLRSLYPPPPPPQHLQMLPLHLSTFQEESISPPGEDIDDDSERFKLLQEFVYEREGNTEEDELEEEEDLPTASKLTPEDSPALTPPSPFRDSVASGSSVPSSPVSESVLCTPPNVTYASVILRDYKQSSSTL
- experimental protocol: [^3H]-L-Quis binding to membranes of HEK293 cells expressing D322I
- stated conditions: in the presence of 30 nM [^3H]-L-Quis, read-out: KD, [Ca^2+]o-binding affinity of mGluR1α
measurement kind: Kd (µM)
One number for each entry, in µM.

Kd lookup needed for [Ca+2] [[Ca^2+]o] , thanks. 600

Values compiled from patent US10449216B2.
